Subject Of Test: Delta-5-Desaturase (D5D) (Homo sapiens (Human), UniProt O60427)
Sequence (O60427 whole entry, species assumed): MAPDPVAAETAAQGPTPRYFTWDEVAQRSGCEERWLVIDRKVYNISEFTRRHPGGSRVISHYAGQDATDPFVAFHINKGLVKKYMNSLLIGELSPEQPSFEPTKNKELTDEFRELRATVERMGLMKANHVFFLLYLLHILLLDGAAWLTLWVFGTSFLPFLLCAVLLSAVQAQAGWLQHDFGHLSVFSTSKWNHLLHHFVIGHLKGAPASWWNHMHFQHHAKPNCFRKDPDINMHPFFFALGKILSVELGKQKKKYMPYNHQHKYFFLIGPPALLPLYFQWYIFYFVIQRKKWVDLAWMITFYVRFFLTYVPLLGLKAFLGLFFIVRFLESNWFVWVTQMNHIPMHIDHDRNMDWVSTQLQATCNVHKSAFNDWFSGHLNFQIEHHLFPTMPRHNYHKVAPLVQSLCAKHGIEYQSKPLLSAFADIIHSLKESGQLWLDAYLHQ
Test Name: In vitro measurement of Delta-5-Desaturase inhibitory activity using DGLA-CoA and Arachidonyl-CoA mass spectrometric assays
Applied Conditions: membrane preparations of D5D-overexpressing HEK293 6E cells; averaged over at least two independent runs
Measured Parameter: pIC50
// pIC50 here means minus log10 of the molar concentration (mol/L)

Would you please look over these solved cases?
- Molecule Smiles: "Cc1cnn2c(=O)c(-c3cnn(CCC(F)(F)F)c3)c(C(F)(F)F)nc2c1"
  pIC50: 6.62
- Molecule Smiles: "COc1ccn2c(=O)c(-c3cnn(CC4CC4)c3)c(C(F)(F)F)nc2c1"
  pIC50: 7.32
- Molecule Smiles: "COc1ccn2c(=O)c(-c3cn(CC(F)(F)C(F)(F)F)nn3)c(C(F)(F)F)nc2c1"
  pIC50: 7.35
- Molecule Smiles: "COc1ccn2c(=O)c(-c3cnn(CC(F)(F)C(F)(F)F)c3)c(C(F)(F)F)nc2c1"
  pIC50: 7.94
- Molecule Smiles: "COc1ccn2c(=O)c(-c3cnn(CC(C)(F)F)c3)c(C(F)(F)F)nc2c1"
  pIC50: 7.37
- Molecule Smiles: "CSCOc1ccn2c(=O)c(-c3ccc(OCC(F)(F)F)cc3)c(C(F)(F)F)nc2c1"
  pIC50: 6.50

Query string: Any idea what pIC50 came out for N#Cc1ccc2nc(C(F)(F)F)c(-c3cnn(CC(F)(F)C(F)(F)F)c3)c(=O)n2c1 on Delta-5-Desaturase (D5D) (Homo sapiens (Human), UniProt O60427)?
Result string: 7.33

Query string: And for O=c1ccn2c(=O)c(-c3ccc(OCC(F)(F)F)c(F)c3)c(C(F)(F)F)nc2[nH]1 ?
Result string: 6.48

====

Subject Of Test: Delta-5-Desaturase (D5D) (Homo sapiens (Human))
Test Name: In vitro measurement of Delta-5-Desaturase inhibitory activity using DGLA-CoA and Arachidonyl-CoA mass spectrometric assays
Applied Conditions: membrane preparations of D5D-overexpressing HEK293 6E cells; averaged over at least two independent runs
Measured Parameter: pIC50
Schema: pIC50 number; meaning minus log10 of the concentration expressed in molar units.

- Molecule: "COc1ccn2c(=O)c(-c3cc(-c4ccccc4)no3)c(C(F)(F)F)nc2c1 [Example 1-5]"
  Subject Of Test: "Delta-5-Desaturase (D5D) (Homo sapiens (Human))"
  pIC50: 7.34
- Molecule: "NCc1ccn2c(=O)c(-c3cnn(CC(F)(F)C(F)(F)F)c3)c(C(F)(F)F)nc2c1 [Example 16-2]"
  Subject Of Test: "Delta-5-Desaturase (D5D) (Homo sapiens (Human))"
  pIC50: 6.86

Query string: I have this molecule here, O=c1c(-c2cnn(CC(F)(F)C(F)(F)F)c2)c(C(F)(F)F)nc2cc(Cl)ccn12 [Example 2-6] , and I need its recorded pIC50.
Result string: 8.09

Query string: Can you check C[S+]([O-])c1ccn2c(=O)c(-c3ccc(OCC(F)(F)F)cc3)c(C(F)(F)F)nc2c1 (stereo not shown) [Example 15-1] next?
Result string: 6.36

Query string: Record: COc1ccn2c(=O)c(-c3ccc(OCC(F)(F)F)cc3)c(C3CC3)nc2c1 [Example 1-62]
Result string: 7.96

Query string: Param item: N#Cc1ccn2c(=O)c(-c3ccc(OCC(F)(F)F)cc3)c(C(F)(F)F)nc2c1 [Example 2-9]
Result string: 6.36

Query string: What about Cc1cc2nc(C(F)(F)F)c(-c3cnn(CC(F)(F)C(F)(F)F)c3)c(=O)n2cc1Cl [Example 41-1] ?
Result string: 8.92

Query string: For O=c1c(-c2cnn(CC(F)(F)C(F)(F)F)c2)c(C(F)(F)F)nc2ccc(Cl)cn12 [Example 35] then?
Result string: 8.42

====

Subject Of Test: Delta-5-Desaturase (D5D) (Homo sapiens (Human), UniProt O60427)
Test Name: In vitro measurement of Delta-5-Desaturase inhibitory activity using DGLA-CoA and Arachidonyl-CoA mass spectrometric assays
Applied Conditions: membrane preparations of D5D-overexpressing HEK293 6E cells; averaged over at least two independent runs
Measured Parameter: pIC50
Here pIC50 is given on a logarithmic scale as minus log10 of the concentration in mol/L.

- Molecule: "COc1ccn2c(=O)c(-c3cnn(CC(F)(F)C(F)(F)F)c3)c(C(F)(F)F)nc2c1Cl [Example 39-3]"
  Assay Value: 6.73
- Molecule: "O=c1c(-c2cnn(C3CC3)c2)c(C(F)(F)F)nc2ccccn12 [Example 5-3]"
  Assay Value: 5.28

Query string: Dear colleague, I am looking for the recorded pIC50 of the following molecule: N#Cc1ccn2c(=O)c(-c3cnn(CC(F)(F)C(F)(F)F)c3)c(CF)nc2c1 [Example 1-86]
Result string: 6.87

====

Consider the following compounds and their measured inhibition in vivo at 30 mg/kg readings.
Subject Of Test: Delta-5-Desaturase (D5D) (Mus musculus (Mouse))
Sequence (Q920L1 whole entry): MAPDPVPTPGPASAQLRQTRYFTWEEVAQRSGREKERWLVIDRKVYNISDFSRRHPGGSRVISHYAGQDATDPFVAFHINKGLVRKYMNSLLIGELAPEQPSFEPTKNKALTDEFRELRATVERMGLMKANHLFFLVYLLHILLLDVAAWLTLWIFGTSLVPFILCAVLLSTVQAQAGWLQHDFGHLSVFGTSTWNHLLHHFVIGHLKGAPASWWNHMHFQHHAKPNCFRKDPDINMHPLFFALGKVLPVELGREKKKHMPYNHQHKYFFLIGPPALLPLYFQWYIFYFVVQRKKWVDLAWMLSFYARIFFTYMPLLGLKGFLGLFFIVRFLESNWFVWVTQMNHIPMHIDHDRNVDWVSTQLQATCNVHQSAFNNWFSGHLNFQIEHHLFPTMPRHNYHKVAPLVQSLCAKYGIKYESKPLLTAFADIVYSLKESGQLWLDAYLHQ
Test Name: In vivo measurement of Delta-5-Desaturase inhibitory activity (plasma AA/DGLA ratio in DIO mice)
Applied Conditions: single oral dose 30 mg/kg, read-out: Average % D5D Inhibition expressed as Plasma Endogenous AA/DGLA Ratio
Enter your answer as a number in %; do not include the unit.

- Compound: "COc1ccn2c(=O)c(-c3ccc(OCC(F)(F)F)cc3F)c(C(F)(F)F)nc2c1 [Example 1-20]"
  Assay Value: 78

Now consider the entry below.
Query string: Item Nc1ccn2c(=O)c(-c3ccc(OCC(F)(F)F)cc3)c(C(F)(F)F)nc2n1 [Example 14-2] has what recorded inhibition in vivo at 30 mg/kg?
Result string: 73

====

Subject Of Test: Delta-5-Desaturase (D5D) (Homo sapiens (Human))
Test Name: In vitro measurement of Delta-5-Desaturase inhibitory activity using DGLA-CoA and Arachidonyl-CoA mass spectrometric assays
Applied Conditions: membrane preparations of D5D-overexpressing HEK293 6E cells; averaged over at least two independent runs
Protocol: In vitro Measurement of Delta-5-Desaturase Inhibitory Activity using DGLA-CoA and Arachidonyl-CoA Mass Spectrometric Assays Membrane preparations of D5D-overexpressing HEK293 6E cells were prepared in which the total protein concentration was 5.6 mg/mL. […] DGLA-CoA and Arachidonyl-CoA were detected by multiple reaction monitoring (MRM) of the doubly charged parent ions at m/z 526.6 and 525.6, respectively. […]
Listing of entries alongside the reported log10(IC50).
# log10 transformed; quantity=IC50; unit=nM

Please review the following examples before continuing.
- Compound: "O=c1c(-c2ccc(OCC(F)(F)F)cc2)c(C(F)(F)F)nc2ccccn12"
  log10(IC50): 1.02
- Compound: "CN(C(=O)F)c1ccn2c(=O)c(-c3cnn(CC(F)(F)C(F)(F)F)c3)c(C(F)(F)F)nc2c1"
  log10(IC50): 0.20
- Compound: "COc1ccn2c(=O)c(-c3ccc(OCC(F)(F)F)c(F)c3)c(C(F)(F)F)nc2n1"
  log10(IC50): 1.34

Query string: Suppose we examine the compound [2H]C([2H])([2H])Oc1ccn2c(=O)c(-c3cnn(CCCC(F)(F)F)c3)c(C(F)(F)F)nc2c1 ; what log10(IC50) value has been reported?
Result string: 1.45

Query string: Now give it for COc1cc2nc(C(F)(F)F)c(-c3cnn(CC4CC4(F)F)c3)c(=O)n2cc1F (racemic) too.
Result string: 0.70

Query string: Please answer likewise for N#CCc1ccn2c(=O)c(-c3cnn(CC(F)(F)C(F)(F)F)c3)c(C(F)(F)F)nc2c1
Result string: 1.72

Query string: Item: COc1ccn2c(=O)c(-c3cnn(CC#N)c3)c(C(F)(F)F)nc2c1
Result string: 2.44

Query string: Another compound to check: O=c1ccn2c(=O)c(-c3cnn(CC(F)(F)C(F)(F)F)c3)c(C(F)(F)F)nc2n1CCl
Result string: 1.96

====

Subject Of Test: Delta-5-Desaturase (D5D) (Homo sapiens (Human), UniProt O60427)
Test Name: In vitro measurement of Delta-5-Desaturase inhibitory activity using DGLA-CoA and Arachidonyl-CoA mass spectrometric assays
Applied Conditions: membrane preparations of D5D-overexpressing HEK293 6E cells; averaged over at least two independent runs
Measured Parameter: pIC50
Field pIC50 (float): negative decimal logarithm of the concentration in molar.

For orientation, consider the following solved cases.
- Molecule Smiles: "O=c1c(-c2ccc(OCC(F)(F)F)cn2)c(C(F)(F)F)nc2ccccn12"
  Assay Value: 5.28
- Molecule Smiles: "COc1ccn2c(=O)c(-c3ccc(OCC(F)(F)F)c(F)c3)c(C(F)F)nc2c1"
  Assay Value: 8.00

Query string: Request: pIC50, test system Delta-5-Desaturase (D5D) (Homo sapiens (Human), UniProt O60427), entry O=c1c(-c2ccc(OCC(F)(F)F)cc2)c(C(F)(F)F)nc2cc(C(F)(F)F)ccn12
Result string: 5.28

====

Subject Of Test: Delta-5-Desaturase (D5D) (Homo sapiens (Human))
Test Name: In vitro measurement of Delta-5-Desaturase inhibitory activity using DGLA-CoA and Arachidonyl-CoA mass spectrometric assays
Applied Conditions: membrane preparations of D5D-overexpressing HEK293 6E cells; averaged over at least two independent runs
Measured Parameter: pIC50
pIC50 (log units): -log10 of the concentration in mol/L.

Solved cases (6 shown):
- Compound: "COc1ccn2c(=O)c(-c3ccn(CC(F)(F)C(F)(F)F)n3)c(C(F)(F)F)nc2c1 [Example 39-1]"
  Assay Value: 7.07
- Compound: "C[S@+]([O-])c1ccn2c(=O)c(-c3cnn(CC(F)(F)C(F)(F)F)c3)c(C(F)(F)F)nc2c1 [Example 15-5]"
  Assay Value: 6.80
- Compound: "O=c1c(-c2ccc(OCC(F)(F)F)cc2)c(C(F)(F)F)nc2cc(C3CC3)ccn12 [Example 4-2]"
  Assay Value: 6.95
- Compound: "[2H]C([2H])([2H])n1c(=O)ccn2c(=O)c(-c3ccc(OCC(F)(F)F)cc3)c(C(F)(F)F)nc12 [Example 11-1]"
  Assay Value: 7.32
- Compound: "Cc1cnc2nc(C(F)(F)F)c(-c3cnn(CC(F)(F)C(F)(F)F)c3)c(=O)n2c1 [Example 40-2]"
  Assay Value: 7.29
- Compound: "O=C(O)c1ccn2c(=O)c(-c3ccc(OCC(F)(F)F)cc3)c(C(F)(F)F)nc2c1 [Example 2-2]"
  Assay Value: 6.19

Query string: Recorded pIC50 for COc1ccn2c(=O)c(-c3ccc(OCC(F)(F)F)cc3)c(OC)nc2c1 [Example 1-80] with Delta-5-Desaturase (D5D) (Homo sapiens (Human)), please?
Result string: 7.90

Query string: Try this compound next: Cn1c(=O)ccn2c(=O)c(-c3cnn(CC(F)(F)C(F)(F)F)c3)c(C(F)(F)F)nc12 [Example 67]
Result string: 7.49

Query string: Then this compound: CC[S@@+]([O-])c1ccn2c(=O)c(-c3ccc(OCC(F)(F)F)cc3)c(C(F)(F)F)nc2c1 [Example 15-8]
Result string: 6.73

Query string: Entry O=c1c(-c2cnn(CC(F)(F)C(F)(F)F)c2)c(C(F)(F)F)nc2cc(OCCl)ccn12 [Example 46] please
Result string: 7.78
